procedure.details: in situ brain/choroid plexus perfusion: CNS uptake of [^3H]-arginine, [^3H]-ADMA and [^14C]-sucrose (multiple-time and single-time uptake analysis)
study.conditions: male, BALB/c, mouse, CSF
observed.property: Kp at […], […]
Note: the reply should be a number with no unit written.

QUERY: Fill in: Kp at […], […] of N=C(N)NCCC[C@H](N)C(=O)O [[^3H]-arginine, reference compound] is ___
RESULT: 0.0441

* * *

procedure.details: cross-inhibition, in situ perfusion: [^3H]-arginine with 0.5–500 μM unlabelled ADMA
Format: in vivo, mouse
study.conditions: male, BALB/c, mouse, other: in situ brain perfusion with artificial plasma, with unlabelled ADMA 500 µM, [3H] Arginine and [14C] Sucrose uptake, pellet, + 500µM un-labelled ADMA, 10 mins, Balb/c ♂, 5ml/min; mean
observed.property: Kp at 10 min
Note: the reply should be a number with no unit written.

QUERY: Fill in: Kp at 10 min of OC[C@H]1O[C@@](CO)(O[C@H]2O[C@H](CO)[C@@H](O)[C@H](O)[C@H]2O)[C@@H](O)[C@@H]1O [[^14C]-sucrose, reference compound] is ___
RESULT: 0.00271

* * *

Tested on: [3H]-ADMA transport across the blood-brain and blood-CSF barriers
procedure.details: cross-inhibition, in situ perfusion: [^3H]-ADMA with 100 μM unlabelled L-arginine
Type: in vivo, mouse
study.conditions: male, Balb/c, mouse, frontal cortex, other: in situ brain perfusion, with 100 µM unlabelled L-arginine, [3H] ADMA + [14C] Sucrose + 100uM Arg, 10 mins, Balb/c ♂, 5ml/min; mean; read-out: uptake into frontal cortex
Protocol: Self-inhibition experiments were also performed. […] Cross-competition experiments were also performed. The percentage change in the RTissue uptake values achieved in the absence or presence of an unlabelled inhibitor can be calculated by means of Eq 4. %change=RTissue−RInhibition/RTissue×100 Eq 4 We define RInhibition as the RTissue uptake in the presence of an inhibitor in the artificial plasma. […]
Counter-ions that a name gives are not always drawn.
observed.property: Kp at 10 min, 62.5 nM
Note: the reply should be a number with no unit written.

QUERY: Fill in: Kp at 10 min, 62.5 nM of CN(C)C(N)=NCCC[C@H](N)C(=O)O [ADMA, N^G,N^G-dimethylarginine dihydrochloride] is ___
RESULT: 0.0858

* * *

procedure.details: in situ brain/choroid plexus perfusion: CNS uptake of [^3H]-arginine, [^3H]-ADMA and [^14C]-sucrose (multiple-time and single-time uptake analysis)
study.conditions: male, BALB/c, mouse, pons, [3H] ADMA and [14C] Sucrose uptake, 2.5 mins, 5ml/min; mean
Structures can show the parent of a compound that is named as a salt.
observed.property: Kp at […]

QUERY: Fill in: Kp at […] of CN(C)C(N)=NCCC[C@H](N)C(=O)O [ADMA, N^G,N^G-dimethylarginine dihydrochloride] is ___
RESULT: 0.117

* * *

procedure.details: in situ brain/choroid plexus perfusion: CNS uptake of [^3H]-arginine, [^3H]-ADMA and [^14C]-sucrose (multiple-time and single-time uptake analysis)
study.conditions: male, BALB/c, mouse, in vivo, tissue or CSF to plasma ratio (mean), pineal gland; 20 mins; uncorrected; given as fraction
observed.property: Kp at 20 min

QUERY: Fill in: Kp at 20 min of OC[C@H]1O[C@@](CO)(O[C@H]2O[C@H](CO)[C@@H](O)[C@H](O)[C@H]2O)[C@@H](O)[C@@H]1O [[^14C]-sucrose, reference compound] is ___
RESULT: 0.524

* * *

System: [3H]-ADMA transport across the blood-brain and blood-CSF barriers
procedure.details: cross-inhibition, in situ perfusion: [^3H]-ADMA with 100 μM unlabelled L-arginine
Type: in vivo, mouse
study.conditions: male, Balb/c, mouse, thalamus, other: in situ brain perfusion, with 100 µM unlabelled L-arginine, [3H] ADMA + [14C] Sucrose + 100uM Arg, 10 mins, Balb/c ♂, 5ml/min; mean; read-out: uptake into thalamus
Counter-ions that a name gives are not always drawn.
observed.property: Kp at 10 min, 62.5 nM

QUERY: Form entry - test system: [3H]-ADMA transport across the blood-brain and blood-CSF barriers; read-out: Kp at 10 min, 62.5 nM; compound: CN(C)C(N)=NCCC[C@H](N)C(=O)O [ADMA, N^G,N^G-dimethylarginine dihydrochloride]
RESULT: 0.0793

* * *

procedure.details: in situ brain/choroid plexus perfusion: CNS uptake of [^3H]-arginine, [^3H]-ADMA and [^14C]-sucrose (multiple-time and single-time uptake analysis)
study.conditions: male, BALB/c, mouse, occipital cortex, Difference (ADMA minus Sucrose), 2.5 mins, 5ml/min; mean
Structures can show the parent of a compound that is named as a salt.
observed.property: Kp at […], 62.5 nM
Note: the reply should be a number with no unit written.

QUERY: Fill in: Kp at […], 62.5 nM of CN(C)C(N)=NCCC[C@H](N)C(=O)O [ADMA, N^G,N^G-dimethylarginine dihydrochloride] is ___
RESULT: 0.086

* * *

procedure.details: in situ brain/choroid plexus perfusion: CNS uptake of [^3H]-arginine, [^3H]-ADMA and [^14C]-sucrose (multiple-time and single-time uptake analysis)
study.conditions: male, BALB/c, mouse, hypothalamus, [3H] ADMA and [14C] Sucrose uptake, 20 mins, 5ml/min; mean
Counter-ions that a name gives are not always drawn.
observed.property: Kp at 20 min, 62.5 nM
Note: the reply should be a number with no unit written.

QUERY: Fill in: Kp at 20 min, 62.5 nM of CN(C)C(N)=NCCC[C@H](N)C(=O)O [ADMA, N^G,N^G-dimethylarginine dihydrochloride] is ___
RESULT: 0.416

* * *

procedure.details: in situ brain/choroid plexus perfusion: CNS uptake of [^3H]-arginine, [^3H]-ADMA and [^14C]-sucrose (multiple-time and single-time uptake analysis)
study.conditions: male, BALB/c, mouse, choroid plexus, Difference (ADMA minus Sucrose), 20 mins, 5ml/min; mean
Where a name gives a salt, the structure may show the parent alone.
observed.property: Kp at 20 min, 62.5 nM
Note: the reply should be a number with no unit written.

QUERY: Fill in: Kp at 20 min, 62.5 nM of CN(C)C(N)=NCCC[C@H](N)C(=O)O [ADMA, N^G,N^G-dimethylarginine dihydrochloride] is ___
RESULT: 1.92

* * *

procedure.details: capillary depletion analysis after in situ brain perfusion
Type: in vivo, mouse
study.conditions: male, BALB/c, mouse, capillary depletion supernatant (brain parenchyma), Difference (ADMA minus Sucrose), supernatant, 20 mins, 5ml/min; mean
Counter-ions that a name gives are not always drawn.
observed.property: Kp at 20 min, 62.5 nM

QUERY: Fill in: Kp at 20 min, 62.5 nM of CN(C)C(N)=NCCC[C@H](N)C(=O)O [ADMA, N^G,N^G-dimethylarginine dihydrochloride] is ___
RESULT: 0.14

* * *

procedure.details: in situ brain/choroid plexus perfusion: CNS uptake of [^3H]-arginine, [^3H]-ADMA and [^14C]-sucrose (multiple-time and single-time uptake analysis)
study.conditions: male, BALB/c, mouse, pituitary gland, [3H] ADMA and [14C] Sucrose uptake, 2.5 mins, 5ml/min; mean
Where a name gives a salt, the structure may show the parent alone.
observed.property: Kp at […]
Note: the reply should be a number with no unit written.

QUERY: Fill in: Kp at […] of CN(C)C(N)=NCCC[C@H](N)C(=O)O [ADMA, N^G,N^G-dimethylarginine dihydrochloride] is ___
RESULT: 0.761

* * *

procedure.details: cross-inhibition, in situ perfusion: [^3H]-ADMA with 100 μM unlabelled L-arginine
Format: in vivo, mouse
study.conditions: male, Balb/c, mouse, pellet, other: in situ brain perfusion, with 100 µM unlabelled L-arginine, Difference (ADMA minus Sucrose), pellet, + 100uM Arg, 10 mins, Balb/c ♂, 5ml/min; individual mice
Structures can show the parent of a compound that is named as a salt.
observed.property: Kp at 10 min, 62.5 nM
Note: the reply should be a number with no unit written.

QUERY: Fill in: Kp at 10 min, 62.5 nM of CN(C)C(N)=NCCC[C@H](N)C(=O)O [ADMA, N^G,N^G-dimethylarginine dihydrochloride] is ___
RESULT: 0.00309

* * *

procedure.details: self-inhibition, in situ perfusion: [^3H]-ADMA with 100 μM unlabelled ADMA
Assay type: in vivo, mouse
study.conditions: male, BALB/c, mouse, choroid plexus, other: in situ brain perfusion, with unlabelled ADMA 100 µM, [3H] ADMA + [14C] Sucrose + 100uM un-labelled ADMA, 10 mins, Balb/c ♂, 5ml/min; individual mice; read-out: uptake into choroid plexus
Structures can show the parent of a compound that is named as a salt.
observed.property: Kp at 10 min, 62.5 nM
Note: the reply should be a number with no unit written.

QUERY: Fill in: Kp at 10 min, 62.5 nM of CN(C)C(N)=NCCC[C@H](N)C(=O)O [ADMA, N^G,N^G-dimethylarginine dihydrochloride] is ___
RESULT: 0.617
